Cited source for all entries: patent US20260317324A1

target: BRAF G469A (Homo sapiens, UniProt P15056, G469A); construct: Horizon Discovery (HCT-116 BRAF−/− cells); host or cells: HCT-116 BRAF−/− cells, clone 34, lentiviral transduction; test: BRAF HiBiT degradation assay, C-terminal HiBiT-tagged BRAF G469A overexpressed in HCT-116 BRAF−/− cells (clone 34), Nano-Glo HiBiT Lytic assay; assay type: cell-based; settings: BRAF G469A (Class 2), HCT-116 BRAF−/− cells; DC50 at 50% degradation
Sequence (P15056 whole entry G469A): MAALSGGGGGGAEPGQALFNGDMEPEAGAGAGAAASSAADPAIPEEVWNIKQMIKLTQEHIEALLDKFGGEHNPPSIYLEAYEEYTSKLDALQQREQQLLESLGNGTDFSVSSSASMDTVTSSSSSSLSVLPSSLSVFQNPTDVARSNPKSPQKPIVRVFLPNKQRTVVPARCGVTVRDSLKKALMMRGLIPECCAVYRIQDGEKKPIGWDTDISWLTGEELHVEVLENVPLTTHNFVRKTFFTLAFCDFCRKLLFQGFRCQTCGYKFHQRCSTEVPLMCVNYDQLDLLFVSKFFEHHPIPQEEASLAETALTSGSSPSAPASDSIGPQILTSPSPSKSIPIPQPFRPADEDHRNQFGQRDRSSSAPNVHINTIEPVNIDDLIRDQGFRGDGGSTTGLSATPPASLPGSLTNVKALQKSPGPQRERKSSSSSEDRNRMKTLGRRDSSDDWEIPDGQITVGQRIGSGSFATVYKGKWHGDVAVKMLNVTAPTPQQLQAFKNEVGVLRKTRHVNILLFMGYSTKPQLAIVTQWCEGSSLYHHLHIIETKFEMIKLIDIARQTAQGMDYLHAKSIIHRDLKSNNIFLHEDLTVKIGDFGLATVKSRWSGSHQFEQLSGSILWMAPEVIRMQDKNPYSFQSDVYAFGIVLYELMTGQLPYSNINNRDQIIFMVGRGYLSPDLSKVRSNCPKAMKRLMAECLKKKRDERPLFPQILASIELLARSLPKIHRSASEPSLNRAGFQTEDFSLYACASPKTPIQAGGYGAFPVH
Can you tell me DC50 for the items I'm about to list?

Here are 9 molecules together with their reported answers.
>>> reported("O=C1CC[C@H](c2ccc(N3CCC(CN4CCN(c5ccc(-n6cc(-c7cc(Cl)cc(NS(=O)(=O)N8CC[C@@H](F)C8)c7F)c(-c7ccncc7)n6)c(F)c5)CC4)CC3)nc2)C(=O)N1 [Compound 334]")
"10 to 50 nM"
>>> reported("CCN(C)S(=O)(=O)Nc1cc(Cl)cc(-c2cn(-c3ccc(N4CCN(CC5CCN(c6ccc([C@H]7CCC(=O)NC7=O)cn6)CC5)CC4)cn3)nc2-c2ccncc2)c1F [Compound 314]")
"10 to 50 nM"
>>> reported("O=C1CC[C@H](c2ccc(N3CCC(CN4CCN(c5ccc(-n6cc(-c7cc(F)cc(NS(=O)(=O)N8CCCC8)c7F)c(-c7ccncc7)n6)cc5)CC4)CC3)nc2)C(=O)N1 [Compound 301]")
"10 to 50 nM"
>>> reported("O=C1CC[C@H](c2ccc(N3CCC(CN4CCN(c5ccc(-n6cc(-c7cc(Cl)cc(NS(=O)(=O)C8CCCC8)c7F)c(-c7ccncc7)n6)cc5)CC4)CC3)cc2)C(=O)N1 [Compound 374]")
"10 to 50 nM"
>>> reported("O=C1CCC(c2ccc(N3CCC(CN4CCN(c5ccc(-n6cc(-c7cc(Cl)cc(NS(=O)(=O)N8CC[C@@H](F)C8)c7F)c(-c7ccncc7)n6)c(F)c5)CC4)CC3)nc2)C(=O)N1 (mixture of isomers) [Compound 335]")
"10 to 50 nM"
>>> reported("O=C1CC[C@@H](c2ccc(N3CCC(CN4CCN(c5ccc(-n6cc(-c7cc(Cl)cc(NS(=O)(=O)N8CCCC8)c7F)c(-c7ccncc7)n6)cc5)CC4)CC3)cc2F)C(=O)N1 [Compound 384]")
"> 500 nM"
>>> reported("C[C@@H]1CN(c2ccc(-n3cc(-c4cc(Cl)cc(NS(=O)(=O)N5CCCC5)c4F)c(-c4ccncc4)n3)cc2)CCN1CC1CCN(c2ccc(N3CCC(=O)NC3=O)cc2)CC1 [Compound 319]")
"50 to 500 nM"
>>> reported("C[C@@H]1CN(c2ccc(-n3cc(-c4cc(Cl)cc(NS(=O)(=O)N5CC[C@@H](F)C5)c4F)c(-c4ccncc4)n3)nc2)CCN1CC1CCN(c2ccc([C@H]3CCC(=O)NC3=O)cc2)CC1 [Compound 320]")
"< 10 nM"
>>> reported("O=C1CCC(c2ccc(N3CCC(CN4CCN(c5ccc(-n6cc(-c7cc(Cl)cc(NS(=O)(=O)N8CCCC8)c7F)c(-c7ccncc7)n6)cc5F)CC4)CC3)nc2)C(=O)N1 (racemic) [Compound 363]")
"< 10 nM"

Sample O=C1CCC(c2ccc(N3CCC(CN4CCN(c5ccc(-n6cc(-c7cc(F)cc(NS(=O)(=O)N8CC[C@@H](F)C8)c7F)c(-c7ccncc7)n6)nc5)CC4)CC3)nc2)C(=O)N1 (mixture of isomers) [Compound 304] ; DC50 observed: 10 to 50 nM

----------
Field: DC50. Provide a value for each of the molecules that follow.
target: BRAF D594G (Homo sapiens, UniProt P15056, D594G); construct: Horizon Discovery (HCT-116 BRAF−/− cells); host or cells: HCT-116 BRAF−/− cells, clone 63, lentiviral transduction; test: BRAF HiBiT degradation assay, C-terminal HiBiT-tagged BRAF D594G overexpressed in HCT-116 BRAF−/− cells (clone 63), Nano-Glo HiBiT Lytic assay; type: cell-based; details: BRAF D594G; DC50 at 50%: fitted conc. at Y=50
Sequence (P15056 whole entry D594G): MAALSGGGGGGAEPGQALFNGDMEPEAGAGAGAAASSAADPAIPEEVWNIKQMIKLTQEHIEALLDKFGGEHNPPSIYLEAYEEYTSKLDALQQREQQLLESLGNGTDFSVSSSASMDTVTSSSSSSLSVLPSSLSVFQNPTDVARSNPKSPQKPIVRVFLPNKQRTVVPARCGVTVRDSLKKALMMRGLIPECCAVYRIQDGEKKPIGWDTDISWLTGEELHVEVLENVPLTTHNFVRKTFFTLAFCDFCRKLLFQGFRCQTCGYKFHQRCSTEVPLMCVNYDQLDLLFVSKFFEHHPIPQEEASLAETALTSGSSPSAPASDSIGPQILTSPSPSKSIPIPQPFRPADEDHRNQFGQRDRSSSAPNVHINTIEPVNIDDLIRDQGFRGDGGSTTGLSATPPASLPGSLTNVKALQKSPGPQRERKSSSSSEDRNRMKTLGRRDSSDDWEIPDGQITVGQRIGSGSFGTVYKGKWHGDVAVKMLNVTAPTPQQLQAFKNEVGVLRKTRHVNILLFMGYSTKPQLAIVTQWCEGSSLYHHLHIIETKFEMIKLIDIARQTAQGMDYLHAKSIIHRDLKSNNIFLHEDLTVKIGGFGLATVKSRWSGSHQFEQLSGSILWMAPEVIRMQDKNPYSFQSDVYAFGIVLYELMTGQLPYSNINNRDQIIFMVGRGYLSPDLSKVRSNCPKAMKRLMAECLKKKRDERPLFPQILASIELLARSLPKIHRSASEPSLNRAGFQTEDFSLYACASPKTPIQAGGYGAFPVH

# annotated cases, reported DC50 shown
>>> reported("CCCS(=O)(=O)Nc1cccc(-c2nc(C(C)(C)C)sc2-c2ccnc(Nc3ccc(C4CCN(CC5CCN(c6ccc(C7CCC(=O)NC7=O)cn6)CC5)CC4)cc3)n2)c1F (racemic)")
"> 500 nM"
>>> reported("CCCS(=O)(=O)Nc1cccc(-c2nc(C(C)(C)C)sc2-c2ccnc(Nc3cnn(C4CCN(CC5CCN(c6ccc7c(=O)n(C8CCC(=O)NC8=O)ccc7c6)CC5)CC4)c3)n2)c1F (racemic)")
"> 500 nM"
>>> reported("CCCS(=O)(=O)Nc1cccc(-c2nc(C3CCN(C(=O)C4CCN(CC5CCN(c6ccc(C7CCC(=O)NC7=O)cn6)CC5)CC4)CC3)sc2-c2ccncc2)c1F (racemic)")
"> 500 nM"
>>> reported("CCCS(=O)(=O)Nc1cccc(-c2nc(C(C)(C)C)sc2-c2ccnc(Nc3cnn(CC4CCN(C(=O)[C@H]5CC[C@H](Oc6ccc(C7CCC(=O)NC7=O)cn6)CC5)CC4)c3)n2)c1F (mixture of isomers)")
"> 500 nM"
>>> reported("CCCS(=O)(=O)Nc1cccc(-c2cn(-c3ccc(C4CCN(CC5CCN(c6ccc(C7CCC(=O)NC7=O)cc6)CC5)CC4)cc3)nc2-c2ccncc2)c1F (racemic)")
"> 500 nM"

State the recorded DC50 for every item in the following list.
1. CCCS(=O)(=O)Nc1cccc(-c2nc(C(C)(C)C)sc2-c2ccnc(NCC(C)(C)C3CCN(CC4CCN(c5ccc(C(=O)N[C@H]6CCC(=O)NC6=O)nc5)CC4)CC3)n2)c1F
2. CCCS(=O)(=O)Nc1cccc(-c2nc(C(C)(C)C)sc2-c2ccnc(Nc3cccc(OC4CCN(C(=O)CN5CCC(c6ccc(NC7CCC(=O)NC7=O)cc6)CC5)CC4)c3)n2)c1F (racemic)
3. CCCS(=O)(=O)Nc1cccc(-c2nc(C(C)(C)C)sc2-c2ccnc(Nc3cccc(OC4CCN(CC[C@@H]5CCN(c6ccc(C7CCC(=O)NC7=O)cn6)C5)CC4)c3)n2)c1F (mixture of isomers)
4. CCCS(=O)(=O)Nc1cccc(-c2nc(C3(C)CCN(C(=O)C4CCN(CC5CCN(c6ccc(C7CCC(=O)NC7=O)cc6)CC5)CC4)CC3)sc2-c2ccnc(N)n2)c1F (racemic)
5. CCCS(=O)(=O)Nc1cccc(-c2nc(C(C)(C)C)sc2-c2ccnc(Nc3cnn(CC4CCN(C(=O)[C@H]5CC[C@H](Oc6ccc(C7CCC(=O)NC7=O)cc6)CC5)CC4)c3)n2)c1F (mixture of isomers)
6. CCCS(=O)(=O)Nc1cccc(-c2nc(C3CCC4(CC3)CCN(C(=O)C3CCN(c5ccc6c(c5)C(=O)N(C5CCC(=O)NC5=O)C6=O)CC3)CC4)sc2-c2ccnc(N)n2)c1F (racemic)

Out:
["> 500 nM", "> 500 nM", "> 500 nM", "> 500 nM", "> 500 nM", "< 10 nM"]

Each molecule below has a recorded value; state its DC50.
1. CCCS(=O)(=O)Nc1cccc(-c2nc(C(C)(C)C)sc2-c2ccnc(N[C@H]3CC[C@@H](N4CCN(C(=O)C5CCN(c6ccc(C7CCC(=O)NC7=O)cn6)CC5)CC4)CC3)n2)c1F (mixture of isomers)
2. CCCS(=O)(=O)Nc1cccc(-c2nc(C(C)(C)C)sc2-c2ccnc(Nc3ccc(N4CCN(C(=O)C5CCN(c6ccc(C7CCC(=O)NC7=O)cc6)CC5)CC4)c(F)c3)n2)c1F (racemic)
3. CCCS(=O)(=O)Nc1cccc(-c2nc(C(C)(C)C)sc2-c2ccnc(Nc3ccc(C4CCN(C(=O)C5CN(c6ccc(C7CCC(=O)NC7=O)cn6)C5)CC4)cc3)n2)c1F (racemic)
4. CCCS(=O)(=O)Nc1cccc(-c2cn(-c3ccc(N4CCN(CC5CCN(c6ccc([C@H]7CCC(=O)NC7=O)cc6)CC5)CC4)cc3)nc2-c2ccncc2)c1F
5. CCCS(=O)(=O)Nc1cccc(-c2nc(C(C)(C)C)sc2-c2ccnc(Nc3cnn(C4CCN(CC[C@H]5CCN(c6ccc(C7CCC(=O)NC7=O)cn6)C5)CC4)c3)n2)c1F (mixture of isomers)
6. CCN(C)S(=O)(=O)Nc1cccc(-c2nc(C(C)(C)C)sc2-c2ccnc(Nc3ccc(N4CCN(CC5CCN(c6ccc([C@@H]7CCC(=O)NC7=O)cc6)CC5)CC4)cn3)n2)c1F

Out:
1. 10 to 50 nM
2. > 500 nM
3. > 500 nM
4. < 10 nM
5. > 500 nM
6. < 10 nM

Look up DC50 for the entries below, preserving their order.
1. CCCS(=O)(=O)Nc1cccc(-c2nc(C(C)(C)C)sc2-c2ccnc(Nc3ccc(N4CCN(C(=O)CN5CCc6cc(C7CCC(=O)NC7=O)ccc6C5)CC4)c(F)c3)n2)c1F (racemic)
2. CCCS(=O)(=O)Nc1cccc(-c2nc(C(C)(C)C)sc2-c2ccnc(Nc3cnn(CC4CCN(CC5CCN(c6ccc7c(=O)n(C8CCC(=O)NC8=O)ccc7c6)CC5)CC4)c3)n2)c1F (racemic)

Out:
1. 50 to 500 nM
2. 50 to 500 nM
